Below: a set of entries, each annotated with reported Human Whole Blood Monocyte Activation Assay [IC50, M].
Biological target: T1, human M-CSF (human, UniProt P09603 33-190)
T1 chain: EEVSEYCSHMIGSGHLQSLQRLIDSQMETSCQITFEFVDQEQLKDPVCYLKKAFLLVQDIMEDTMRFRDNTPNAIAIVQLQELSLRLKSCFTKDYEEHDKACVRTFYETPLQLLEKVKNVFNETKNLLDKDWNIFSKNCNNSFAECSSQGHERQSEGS
Experiment: cell-based or functional assay
reported_endpoint: Human Whole Blood Monocyte Activation Assay [IC50, M] (M)

binder | meas_value
monoclonal antibody 2.7.3 (antibody, human IgG4, kappa, V domains shown) VH: QVQLVESGGGVVQPGRSLRLSCAASGFTFSSYGMHWVRQAPGKGLEWVAFIWYDGSNKYYADSVKGRFTISRDNSKNTLYLQMNSLRAEDTAVYYCARGYRVYFDYWGQGTLVTVSS VL: DIQMTQSPSSVSASVGDRVTITCRASQDISSWLAWYQRKPGKAPKLQIYAASSLESGVPSRFNGSGSGTDFTLSISSLQPEDFATYYCQQTNSFPLTFGGGTKVEIKR | 7.15e-10
monoclonal antibody 3.8.3 (antibody, human IgG2, kappa, V domains shown) VH: QVQLVESGGGLVKPGGSLRLSCAASGFTFSDYYMSWIRQAPGKGLEWFSYISSSGSTIYYADSVKGRFTISRDNAKNSLSLQMNSLRAEDTAVYYCARGLTGDYWGQGTLVTVSS VL: DIQMTQSPSSVSASVGDRVTISCRASQDISGWLAWYQQKPGKAPKLLISATSSLHSGVPSRFSGSGSGTDFTLTISSLQPEDFATYYCQQTNSFPFTFGPGTKVDIKR | 8.6e-11
monoclonal antibody 252 (antibody, human IgG2, kappa, V domains shown) VH: QVQLVESGGGLVKPGGSLRLSCAASGFTFSDYYMSWIRQAPGKGLEWISYISGSGSTIYYADSVKGRFTISRDNAKNSLYLQMNSLRAEDTAVYHCARALGGMDVWGQGTTVTVSS VL: DIQMTQSPSSLSASVGDRVTITCRASQSISGFLNWYQQKPGKAPKLLIYATSSLQSGVPFRFSGSGSGTDFTLTISSLQPEDFATYYCQQSYSVPFTFGPGTKVDIKR | 8.67e-10
